Test: splicing luciferase reporter signal modulators, primary screen, spliceosome inhibition project, cell-based, HEK293, splice +/- reporter (AID 1101);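 note: HEK293 cells carrying a splicing-competent luciferase reporter gene; test concentration not given here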
Details: luminescence, 24 h, higher = more signal, called active from +8 up or from −8 down
Records here are stratified by z-score; strata: class 0 (below -0.2), class 1 (-0.2 to below 0.2), class 2 (0.2 or more)

Look over these answered cases.
INSERT INTO results (molecule, label_class) VALUES
  ('CCN1C(=O)[C@H]2[C@H]3[C@H](O)[C@H](O)CC(=NOC[C@@H](C)[C@H](OCc4ccccc4)C(C)C)[C@@H]3CC[C@H]2C1=O', 'class 2'),
  ('COc1ccc(O[C@H]2C=C[C@@H](c3ccccc3)O[C@@H]2COC(=O)CCC(C)=NOC[C@@H](C)[C@H](OCc2ccccc2)C(C)C)cc1', 'class 2'),
  ('CO[C@H]([C@@H](C)[C@H](OC)c1ccccc1)[C@H](C)[C@@H](OC)[C@H](C)C(C)=O', 'class 1'),
  ('COc1ccc(O[C@H]2C=C[C@@H](c3ccccc3)O[C@@H]2COC(=O)N2CCCCC2)cc1', 'class 2'),
  ('[N-]=[N+]=NCc1ccccc1C[C@]1(C(=O)NCc2ccccc2)N=C(c2ccc(OCCCO)cc2)O[C@H]1c1ccccc1N=[N+]=[N-]', 'class 1');

IN: Hello team, could you let me know which band the following molecule falls into: COC(=O)[C@H](C)NC(=O)CCC1CC(OC(=O)NCc2cccc3ccccc23)CC2(CCCC(COC(=O)NCCc3ccc(Cl)cc3)O2)O1 (some centres not stated)
OUT: class 0

IN: Any idea which band CO[C@@H]1COC(=O)CCC[C@@H](C)[C@H](OC)COC(=O)CCC[C@H]1C is in?
OUT: class 2

IN: Class for C=CC[C@@H]1C=C[C@H](ON=C(C)CCN2CCc3nc(CC)c(CC)cc3C2)[C@@H](CO)O1 ?
OUT: class 1

IN: Band for CO[C@H]1COC(=O)CC=C[C@H](C)[C@@H](NS(=O)(=O)c2ccc(C)cc2)COC(=O)CC=C[C@@H]1C ?
OUT: class 0

IN: # classify by z-score band: CCOC(=O)[C@H](Cc1ccccc1)NC(=O)CCC1CC(OC(=O)NCCc2ccc(F)cc2)CC2(CCCC(COC(=O)NCC(c3ccccc3)c3ccccc3)O2)O1 (some centres not stated)
OUT: class 2

IN: Could you tell me which band CCCC[C@H]1OB(O)C[C@H]2C1=C(C)C[C@H]1C(=O)N(C)C(=O)[C@H]12 belongs to?
OUT: class 2

IN: Form field 'band' for CCN1C(=O)[C@H]2[C@H]3[C@H](O)[C@H](O)CC(=NOCC=C(C)CCC=C(C)C)[C@H]3CC[C@H]2C1=O
OUT: class 2

IN: Hello team, could you let me know which band the following molecule falls into: Cc1cc2c(nc1C)CCCN2CC(O)CN1CCN(C)CC1 (configuration not stated)
OUT: class 1

IN: Which band does COC(=O)[C@@H]1CCCN1C(=O)[C@@H](C)CO fall in?
OUT: class 0

IN: // bin(item) where item = COC(=O)CC=C[C@H](C)[C@H](CO)NS(=O)(=O)c1ccc(C)cc1
OUT: class 2

IN: Category lookup for the molecule O=C1O[C@@H](c2ccccc2)[C@@H](c2ccccc2)N2[C@@H](c3ccccc3OCCO)[C@]3(C(=O)Nc4ccc(C#CCCO)cc43)[C@@H](C(=O)O)[C@H]12
OUT: class 0

IN: Dear colleague, I would appreciate it if you could identify the bin for COC(=O)[C@H](C)NC(=O)CCC1CC(OC(=O)NCCc2ccc(F)cc2)CC2(CCCC(COC(=O)NCCc3ccc(Cl)cc3)O2)O1 (some centres not stated) and reply at your convenience.
OUT: class 1

IN: Into which bin does this molecule go? C[C@@H](c1ccccc1)N1C(=O)[C@H]2[C@H]3[C@H](O)[C@H](O)CC(=NOC[C@@H](O)COCc4ccco4)[C@@H]3CC[C@H]2C1=O
OUT: class 1

IN: For COC(=O)[C@H]1COC(c2ccc(OCCCO)cc2)=N1 , which z-score bin applies?
OUT: class 1

====

Test: PSAC antagonists in infected red cells, primary screen, cell-based, P. falciparum Indochina, OD700, 2 h (AID 1155);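 note: lysis reports solute entry through the parasite surface anion channel PSAC; channel blockers reduce lysis of infected cells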
Details: P. falciparum Indochina infected erythrocytes, osmotic lysis OD700; higher = more signal, called active from +8 up or from −8 down
Entries and their z-score
# answer = number (no unit)

Completed entries (count: 3):
INSERT INTO results (smiles_str, value) VALUES
  ('O=C(NN=C1C[C@@H](O)[C@@H](O)[C@@H]2[C@@H]3C(=O)N(c4cccc(Oc5ccccc5)c4)C(=O)[C@@H]3CC[C@@H]12)OCc1ccccc1', 0.237),
  ('COC(=O)C1=C(C)N(Cc2ccccc2)[C@]23O[C@](C(=O)OC)(C(=O)N2[C@@H]1c1ccccc1)[C@H]1CCOC(=O)[C@H]13', -0.0468),
  ('CCCNC(=O)[C@@H]1c2ccccc2C(=O)N(c2ccc(C)cn2)[C@H]1c1ccc(CO)cc1', -0.0991);

# evaluate next
IN: Entry CC(CCC(=O)OC[C@H]1O[C@H](C#Cc2ccccc2)C=C[C@@H]1Oc1ccc(C)cc1)=NOC[C@@H](O)COCc1ccco1 needs its z-score filled in; supply it.
OUT: 1.77

====

Experiment: small-molecule binders of probe aNOTCH2, primary screen, biochemical, small-molecule microarray, 635/667 nm fluorescence (AID 1121);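 note: score merges feature fluorescence read at 667 nm with its signal to noise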
Details: higher = more signal
quantity-kind: composite z-score
Please state the value as a number alone, without comment.

Consider the reported composite z-score for these compounds:
INSERT INTO measurements (compound, quantity_kind, value) VALUES
  ('COC(=O)C1=CCC(c2cccc(Cl)c2)O1 (stereo unspecified)', 'composite z-score', -0.0907),
  ('C=CCC(OC(C)=O)[C@@H]1[C@@H](N(Cc2cc3ccccc3o2)C(=O)Cc2ccc(F)cc2)c2cc(OCCCO)ccc2N1C(=O)Cc1ccc(OC)cc1 (stereo partly specified)', 'composite z-score', -0.178),
  ('C[C@@H]1CCC2C(=O)N(Cc3ccccc3)C[C@@H](O)CN2[C@H]1c1ccc(Br)cc1 (stereo partly specified)', 'composite z-score', -0.176),
  ('CC(CCC(=O)OC[C@H]1O[C@H](C#Cc2ccccc2)C=C[C@@H]1Oc1ccc(C)cc1)=NOC[C@@H](O)COCc1ccco1', 'composite z-score', -0.306),
  ('CC1(C)OCC(C(O)C2=CCCCC2=O)CO1 (stereo unspecified)', 'composite z-score', 0.148);

IN: Read off the recorded composite z-score for COC(=O)[C@@]1(Cc2ccccc2)[C@H]2c3cc(C(=O)N4CCCC4)n(Cc4ccccn4)c3C[C@H]2CN1C(=O)c1ccccc1
OUT: 0.284

IN: Provide one value: measured composite z-score of C#C[C@@H]1Oc2ccccc2S(=O)(=O)N2CCC[C@H]12
OUT: -0.185

IN: Read the entry CCOC(=O)C[C@H]1[C@H](OC(=O)c2ccc(C(=O)c3ccccc3)cc2)[C@@H](NC(=O)c2ccc(-c3ccccc3)cc2)c2cc(OCCCO)ccc2N1C(=O)c1ccc2ccccc2n1 and write its reported composite z-score.
OUT: -0.101

IN: Answer with the recorded composite z-score of CCCCCCc1nc(CCCc2cc3c(c(CCCCCC)n2)[Si](C(C)C)(C(C)C)O[C@H]3c2ccccc2)cc2c1[Si](C(C)C)(C(C)C)O[C@H]2c1ccccc1 only.
OUT: -0.14

IN: Report composite z-score for CO[C@@H]1COC(=O)CCC[C@@H](C)[C@H](OC)COC(=O)[C@H](Cc2ccccc2)NC(=O)CC=C[C@H]1C
OUT: -0.175

IN: Report composite z-score, nothing else, for this compound: CC(C)[Si]1(C(C)C)O[C@@H](c2ccccc2)c2cc(C3CC3)nc(-c3ccccc3)c21
OUT: -0.102

IN: Check the records and state composite z-score for CC(C)=CCCC(C)=CCON=C1[C@H]2CCn3c(=O)n(C)c(=O)n3[C@H]2[C@H](O)[C@@H]2O[C@H]12
OUT: -0.14

IN: Answer with the recorded composite z-score of COc1ccc(O[C@H]2C=C[C@@H](c3ccccc3)O[C@@H]2CON=C[C@@H](C)[C@H](OCc2ccccc2)C(C)C)cc1 only.
OUT: -0.198

IN: Look up and state reported composite z-score for C=C(COC)/C(=C/C[C@H](OC(=O)c1ccncc1)c1ccc(CO)o1)c1cc(C(=O)OC)ccc1OC
OUT: -0.0255

IN: Look up composite z-score of CN1C(=O)C2C=CC(C(O)c3ccc(I)cc3)N(NC(=O)OC(C)(C)C)C2C1=O (stereo unspecified) and report it.
OUT: 0.17

IN: // fetch composite z-score given entry C[C@H]1Cc2c(-c3ccccc3)nc3c(c2CO1)CN(CCOc1ccccc1)CC3
OUT: -0.112

====

Molecular target: Alpha-bungarotoxin (Bungarus multicinctus)
Experiment: alpha-bungarotoxin binders on microarray, profiling panel, artefact control for SMM control protein annotation, biochemical, small-molecule microarray, Alexa647 label, 635/667 nm fluorescence (AID 1117)
Settings: alpha-BTX-A647 binding fluorescence, higher = more signal
quantity-kind: composite z-score

Consider the reported composite z-score for these compounds:
INSERT INTO results (compound, value) VALUES
  ('COc1ccc([Si](C)(C)[C@@H]2[C@@H](CCO)O[C@]3(C(=O)N(Cc4ccc(NC(C)=O)cc4)c4ccccc43)[C@H]2C)cc1', 1.21),
  ('CN1C(=O)C2C=CC(C(O)C(c3ccccc3)c3ccccc3)N(NC(=O)OC(C)(C)C)C2C1=O (centres undefined)', 2.04),
  ('COC(=O)[C@@]1(Cc2ccc(F)cc2)[C@@H]2C(=CC(=O)[C@H]2CC(=O)C(=O)N(C)C)CN1C(=O)c1ccccc1', 0.954);

Let's switch to this compound now.
IN: Recall the reported composite z-score of CCOC(=O)CCN1C(=O)[C@H]2[C@H]3[C@H](O)[C@H](O)CC(=NOCc4ccccc4)[C@@H]3CC[C@H]2C1=O when tested on Alpha-bungarotoxin (Bungarus multicinctus).
OUT: 0.419
